Target: T1, mouse tissue factor pathway inhibitor (TFPI) (mouse, UniProt O54819 29-289, limits assumed)
T1 construct: bought; also called mTFPI; murine TFPI
T1 sequence (looked up): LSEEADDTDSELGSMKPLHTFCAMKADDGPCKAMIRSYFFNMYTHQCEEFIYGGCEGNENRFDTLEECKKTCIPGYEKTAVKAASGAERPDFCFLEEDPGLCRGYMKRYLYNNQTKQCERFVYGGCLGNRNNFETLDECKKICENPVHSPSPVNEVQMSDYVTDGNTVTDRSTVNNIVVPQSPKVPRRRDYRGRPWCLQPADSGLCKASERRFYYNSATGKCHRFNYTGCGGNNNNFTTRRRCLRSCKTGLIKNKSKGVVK
Experiment: SPR, TFPI immobilized
result.type: koff
The reply should read as a number followed by its unit.

Given 2A8 HC_S31V (Fab, V domains shown, also called 2A8-3) VH: QVQLVESGGGLVQPGGSLRLSCAASGFTFRVYGMSWVRQAPGKGLEWVSSIRGSSSSTYYADSVKGRFTISRDNSKNTLYLQMNSLRAEDTAVYYCARKYRYWFDYWGQGTLVTVSS VL: DIELTQPPSVSVAPGQTARISCSGDNLRNYYAHWYQQKPGQAPVVVIYYDNNRPSGIPERFSGSNSGNTATLTISGTQAEDEADYYCQSWDDGVPVFGGGTKLTVLG , state its recorded koff.
0.00202 s⁻¹

src = patent USRE47150
